As shown below, each of these compounds has a reported Ki value.
target: Glutamate receptor ionotropic, kainate 2 (Rattus norvegicus); test: Displacement of [3H]kainic acid from eGFP-fused recombinant rat full length GluK2 receptor expressed in HEK293T/17 cells by liquid scintillation counting method
Sequence (P42260 whole entry, the tested form may be a part): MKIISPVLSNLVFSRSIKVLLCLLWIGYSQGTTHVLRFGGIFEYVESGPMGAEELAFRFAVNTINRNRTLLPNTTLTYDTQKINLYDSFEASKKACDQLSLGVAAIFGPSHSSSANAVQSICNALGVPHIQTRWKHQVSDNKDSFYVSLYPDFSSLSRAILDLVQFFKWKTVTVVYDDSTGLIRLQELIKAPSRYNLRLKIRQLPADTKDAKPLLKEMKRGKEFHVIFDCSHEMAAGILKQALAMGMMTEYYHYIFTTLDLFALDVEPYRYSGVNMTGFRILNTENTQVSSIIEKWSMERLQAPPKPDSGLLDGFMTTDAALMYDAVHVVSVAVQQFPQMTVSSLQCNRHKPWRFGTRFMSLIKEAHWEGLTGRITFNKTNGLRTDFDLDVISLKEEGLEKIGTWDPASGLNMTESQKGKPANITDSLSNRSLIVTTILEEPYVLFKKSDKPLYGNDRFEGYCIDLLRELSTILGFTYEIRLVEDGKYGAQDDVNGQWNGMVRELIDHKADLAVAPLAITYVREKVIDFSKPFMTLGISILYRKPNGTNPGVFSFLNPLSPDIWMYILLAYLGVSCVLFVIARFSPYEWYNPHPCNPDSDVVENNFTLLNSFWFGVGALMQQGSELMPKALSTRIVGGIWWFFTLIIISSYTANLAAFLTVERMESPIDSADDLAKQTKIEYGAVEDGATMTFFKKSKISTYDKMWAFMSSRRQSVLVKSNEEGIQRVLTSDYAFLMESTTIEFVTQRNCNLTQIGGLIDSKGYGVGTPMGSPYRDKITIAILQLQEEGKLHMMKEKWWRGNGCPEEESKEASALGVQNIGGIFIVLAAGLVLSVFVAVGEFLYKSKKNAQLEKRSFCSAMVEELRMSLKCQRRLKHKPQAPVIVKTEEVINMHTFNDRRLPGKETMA

{"columns": ["smiles_text", "Ki"],
 "data": [
  ["O=C(O)c1ccc2ccccc2c1O[C@H]1CN[C@H](C(=O)O)C1", "> 100 µM"],
  ["O=C(O)c1ccccc1O[C@H]1CN[C@H](C(=O)O)C1", "> 100 µM"],
  ["Cc1cccc(C(=O)O)c1O[C@H]1CN[C@H](C(=O)O)C1", "> 1000 µM"],
  ["O=C(O)Cc1ccccc1O[C@H]1CN[C@H](C(=O)O)C1", "> 1000 µM"],
  ["O=C(O)c1ccccc1S[C@H]1CN[C@H](C(=O)O)C1", "> 100 µM"],
  ["O=C(O)c1ccc(O[C@H]2CN[C@H](C(=O)O)C2)c(C(=O)O)c1", "> 1000 µM"]
]}
